B1: library; a variant is named by its letters at N, in order (parent)
chain: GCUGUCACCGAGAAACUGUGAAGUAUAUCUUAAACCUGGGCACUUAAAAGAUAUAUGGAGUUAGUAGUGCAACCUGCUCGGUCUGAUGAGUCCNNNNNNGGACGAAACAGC

Variants of: B1
Test: FACS-Seq fitted mean relative fluorescence mCherry/BFP without ligand (log10 relative fluorescence); HEK293T; ligand: cyclic di-GMP (c-di-GMP-II aptamer); higher = higher reporter protein expression
Conditions: ligand present: no
Given measured FACS-Seq fitted mean (log10), output Criterion met if it is greater than or equal to -0.5 and Criterion not met if not.

Given the entry `GCUAUG` , answer whether its FACS-Seq fitted mean (log10) meets or surpasses -0.5. Criterion not met
